Listed here: items and their measured IC50.
tested on: human ACTA2 gene promoter luciferase reporter in NIH3T3 cells; test: NIH3T3 Acta2-promoter driven-luciferase assay; type: cell-based; conditions: NIH3T3, 24 h, with TGFβ1, 24 hr; read-out: NIH3T3 Acta2-luc, IC50
Answer with a number only, understood to be in nM.

Use these answered entries as a reference point.
compound: COc1nc(N2C3CCC2CNC3)nc(Nc2ccc3[nH]ncc3c2)c1Cl
displayUnit: nM
IC50: 114
--
compound: Cc1nc(N2C3CCC2CNC3)nc(Nc2ccc3[nH]ncc3c2)c1C#N
displayUnit: nM
IC50: 223
--
compound: CN(C)c1nc(N2C3CCC2CNC3)nc(Nc2ccc3[nH]ncc3c2)c1Cl
displayUnit: nM
IC50: 192
--
compound: FC(F)(F)c1cc(Nc2ccc3[nH]ncc3c2)nc(N2C3CCC2CNC3)n1
displayUnit: nM
IC50: 58
--
compound: CNc1cc(Nc2ccc3[nH]ncc3c2)nc(N2C3CCC2CNC3)n1
displayUnit: nM
IC50: 90
--
compound: Cc1cc(Nc2ccc3[nH]ncc3c2)nc(N2CCC3NCC3C2)n1 (stereo not shown)
displayUnit: nM
IC50: 2070
--
compound: Cc1nc(N2C3CCC2CNC3)nc(Nc2ccc3[nH]ncc3c2)c1C
displayUnit: nM
IC50: 1090
--
compound: COc1cnc(N2C3CCC2CNC3)nc1Nc1ccc2[nH]ncc2c1
displayUnit: nM
IC50: 413

Kindly indicate its recorded IC50. Item: `c1cc2[nH]ncc2cc1Nc1nc(N2C3CCC2CNC3)ncc1C1CC1`
3330

Name the recorded IC50 of the item `COc1cc2[nH]ncc2cc1Nc1nc(N2C3CCC2CNC3)ncc1Cl` in your answer.
3810

Note down IC50 recorded for `Cc1c(C#N)nc(N2C3CCC2CNC3)nc1Nc1ccc2[nH]ncc2c1`
1600

Tell me measured IC50 for Fc1cnc(N2CCC3CNCC3CC2)nc1Nc1ccc2[nH]ncc2c1 (stereo not shown) please.
1830

Give the reported value of IC50 for this record: `c1cc2[nH]ncc2cc1Nc1nc(N2C3CNCC2C3)ncc1C1CC1`
1240

Indicate its recorded IC50; the compound in question is `c1cc2[nH]ncc2cc1Nc1nc(N2C3CCC2CNC3)nc2c1COC2`
1440

For the compound `COc1cc2[nH]ncc2cc1Nc1nc(N2C3CNCC2C3)ncc1Cl` , give its reported IC50.
3790

---

target: Recombinant ROCK2 (amino acids 1-552) (Homo sapiens (Human)); experiment: Z′-Lyte kinase assay, ROCK2; format: biochemical; conditions: 1 μM compound; read-out: ROCK2 % inh. @ [conc]
Sequence (O75116 1-552): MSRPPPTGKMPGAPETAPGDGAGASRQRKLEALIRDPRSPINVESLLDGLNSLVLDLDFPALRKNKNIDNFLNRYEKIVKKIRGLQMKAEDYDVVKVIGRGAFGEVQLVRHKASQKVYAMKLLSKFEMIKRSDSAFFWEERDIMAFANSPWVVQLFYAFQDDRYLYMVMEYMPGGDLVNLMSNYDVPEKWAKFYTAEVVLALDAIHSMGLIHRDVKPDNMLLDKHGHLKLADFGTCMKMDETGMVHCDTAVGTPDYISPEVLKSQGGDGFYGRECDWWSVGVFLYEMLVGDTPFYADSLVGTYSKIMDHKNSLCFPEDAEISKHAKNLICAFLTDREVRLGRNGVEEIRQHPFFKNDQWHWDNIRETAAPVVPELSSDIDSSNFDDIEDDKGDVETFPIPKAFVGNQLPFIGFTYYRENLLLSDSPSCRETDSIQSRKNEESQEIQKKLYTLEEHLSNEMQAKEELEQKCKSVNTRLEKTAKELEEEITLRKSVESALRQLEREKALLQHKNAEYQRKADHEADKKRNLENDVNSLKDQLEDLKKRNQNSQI
Label yes when inhibition at 1 µM is at or above 90%; otherwise label no.

compound: Cc1nc(N2CCCNCC2)nc(Nc2ccc3[nH]ncc3c2)c1C
group: no
//
compound: CCC1CNCCCN1c1ncc(C)c(Nc2ccc3[nH]ncc3c2)n1 (stereo not shown)
group: no
//
compound: CC1CN(c2ncc(Cl)c(Nc3ccc4[nH]ncc4c3)n2)CCCN1 (stereo not shown)
group: no
//
compound: Clc1cnc(N2CC3CC2CN3)nc1Nc1ccc2[nH]ncc2c1 (stereo not shown)
group: yes
//
compound: c1cc2nc(N3CCCNCC3)nc(Nc3ccc(-c4cn[nH]c4)cc3)c2s1
group: yes
//
compound: Cc1cnc(N2CCCNC(C)C2)nc1Nc1ccc2[nH]ncc2c1 (stereo not shown)
group: no
//
compound: Cc1cc(Nc2ccc3[nH]ncc3c2)nc(N2CC3CC2CN3)n1 (stereo not shown)
group: yes
//
compound: Cc1nc(N2CCNC(C)C2)nc(Nc2ccc3[nH]ncc3c2)c1C (stereo not shown)
group: no

Entry Cc1cnc(N2CCNCC2C)nc1Nc1ccc2[nH]ncc2c1 (stereo not shown) : is its inhibition at 1 µM no less than 90%?
no

Confirm if inhibition at 1 µM reported for the compound `Cc1cc(Nc2ccc(-c3cn[nH]c3)cc2)nc(N2CCCNCC2)n1` is 90% or above.
no

Is inhibition at 1 µM at least 90%? Consider `c1cc2[nH]ncc2cc1Nc1nc(N2CCCNCC2)nc2c1CCCC2`
yes

Assess whether reported inhibition at 1 µM for `Cc1cnc(N2C3CCC2CNC3)nc1Nc1ccc2[nH]ncc2c1` sits at 90% or higher.
yes

# check: inhibition at 1 µM of `Cc1cc(Nc2ccc3[nH]ncc3c2)nc(N2CC3CNCC(C3)C2)n1` is greater than or equal to 90%
yes

Is it the case that CCC1CNCCN1c1ncc(F)c(Nc2ccc3[nH]ncc3c2)n1 (stereo not shown) has inhibition at 1 µM reaching or exceeding 90%?
no

Quick check, inhibition at 1 µM >= 90%? CC1CN(c2ncc(F)c(Nc3ccc4[nH]ncc4c3)n2)CC(C)N1 (stereo not shown)
no

Determine whether this compound has inhibition at 1 µM no lower than 90%: `c1cc(Nc2ccc(-c3cn[nH]c3)cc2)nc(N2CCCNCC2)n1`
no

Given `COc1cnc(N2C3CCC2CNC3)nc1Nc1ccc2[nH]ncc2c1` , state whether its inhibition at 1 µM is at least 90%.
yes

Is inhibition at 1 µM at least 90%? Consider Cc1cc(Nc2ccc3[nH]ncc3c2)nc(N2CCCNC(C(C)C)C2)n1 (stereo not shown)
no

Ref: patent US11613531B2
